All figures here come from PubChem BioAssay (NCI).

# System: SNB-75 CNS
# ASSAY SUMMARY: NCI tumour cell line growth inhibition, 48 h; in the data active = GI50 below about 0.43 µM; inactive = the rest
Outcomes: y for active, n for inactive

INSERT INTO assay_data (compound, target_under_test, discrete_label) VALUES
  ('CC(=O)[CH-]C(=O)c1ccccc1.CC(=O)[CH-]C(=O)c1ccccc1.COc1cccc([O-])c1[O-].[Ti+4]', 'SNB-75 CNS', 'n'),
  ('Cc1c(C)c2c(c(C)c1NC(=O)/C=C\C(=O)O)CCC(C)(CCCC(C)CCCC(C)CCCC(C)C)O2 (stereo not drawn)', 'SNB-75 CNS', 'n'),
  ('C=C1C(=O)O[C@H]2[C@H]1CC/C(Cn1cc(CNCCc3c[nH]c4ccc(Cl)cc34)nn1)=C\CC[C@@]1(C)O[C@@H]21', 'SNB-75 CNS', 'n'),
  ('CCN(CC)C(=O)CC1=C(C)/C(=C/c2[nH]c(-c3ccc[nH]3)cc2OC)N=C1C', 'SNB-75 CNS', 'y'),
  ('O=S(=O)(Nc1cc(Br)c(O)c2ccccc12)c1ccc(F)cc1', 'SNB-75 CNS', 'n'),
  ('Cc1cc(N2CCN(C)CC2)nc(NCc2cc(Nc3ccnc4cc(Cl)ccc34)ccc2F)n1', 'SNB-75 CNS', 'n'),
  ('COc1cc(N2CCN(C(C)C)CC2)ccc1Nc1nc(Nc2cccc3ncccc23)c2cc[nH]c2n1', 'SNB-75 CNS', 'n'),
  ('CN1CCN(c2ccc(-c3ccc4ncc(C#N)c(Nc5ccc(F)c(Cl)c5)c4c3)cc2)CC1', 'SNB-75 CNS', 'n');
